# Test system: MDA-MB-231
# assay.method.text: In vitro inhibition of estrogen receptor negative […] human mammary carcinoma cell proliferation
# Type: functional, cell-based
# measurement.setup: Homo sapiens, MDA-MB-231
pIC50: −log10 of the molar value.
readout.type: pIC50

1 = COc1ccc(C(=C(CCCCCCCCCCCNCCN)c2ccccc2)c2ccc(OC)cc2)cc1
2 = CC/C(=C(\c1ccccc1)c1ccc(OCCN(C)C)cc1)c1ccccc1
Looking only at measured pIC50, which entry is lower, 1 or 2 ? Identify your selection by its label. 2
